Reference for the values: patent US20210403538A1

tgt: MARV GP [change] (Lake Victoria marburgvirus) (UniProt Q1PD50)
Sequence (Q1PD50 19-648): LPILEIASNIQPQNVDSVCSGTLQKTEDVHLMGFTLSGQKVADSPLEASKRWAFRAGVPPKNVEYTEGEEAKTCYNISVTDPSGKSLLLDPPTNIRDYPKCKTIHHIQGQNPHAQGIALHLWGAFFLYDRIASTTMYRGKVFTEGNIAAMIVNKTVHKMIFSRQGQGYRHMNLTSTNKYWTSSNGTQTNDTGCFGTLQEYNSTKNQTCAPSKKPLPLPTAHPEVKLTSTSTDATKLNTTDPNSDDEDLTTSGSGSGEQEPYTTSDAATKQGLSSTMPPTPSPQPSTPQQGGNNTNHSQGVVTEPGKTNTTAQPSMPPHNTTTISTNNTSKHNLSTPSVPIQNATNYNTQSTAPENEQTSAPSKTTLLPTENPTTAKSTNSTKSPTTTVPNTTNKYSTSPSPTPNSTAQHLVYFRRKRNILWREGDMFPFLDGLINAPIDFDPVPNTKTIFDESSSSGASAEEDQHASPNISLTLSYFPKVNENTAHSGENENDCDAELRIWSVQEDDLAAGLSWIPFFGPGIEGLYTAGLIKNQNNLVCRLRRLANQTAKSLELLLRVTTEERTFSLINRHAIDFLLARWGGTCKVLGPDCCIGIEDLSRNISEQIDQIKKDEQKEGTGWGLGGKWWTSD
Let's look at some binders and their measured EC50.
value-type: EC50

binder	value-type	value-observed
EBOV-520 (antibody, V domains shown) VH: QVQLQESGPGLGKPSETLSLSCTVSGASIRGYFWNWIRQPPGKGLEWIGYIHSTGSTNYNPSLKSRVTISVDTSKNQVSLNVNSVTAADTAVYFCARGAWNVATVYYYYGMDVWGQGTLVTVSS VL: EIVLTQSPGTLSLSPGERATLSCRASQSVSSSYFAWYQQKPGQAPRLLISGTSTRAPGIPDRFSGSGSGTDFTLTISRLEPEDFAVYFCQQYGNSLYTFGQGTKLEIK	EC50	> 10 µg/mL
EBOV-524 (antibody, V domains shown) VH: QVQLVESGGGVVQPGGSLRLSCAASGFKFSTYGMNWVRQVPGQGLEWVSFVRHDGSNKYYSDSVKGRFTIFRDNSNNKLYLQMNNLRAEDTAVYYCAKDVLDCSRADCFIYYYYMDVWGKGTLVTVSS VL: DIQMTQSPSSVSASPGDRVTITCRASQTISGWLAWYQQKPGKAPKLLIYDVSTLQSGVPSRFSGGGSGTEFTFTISSLQPEDYATYFCQQGNRIPLSFGGGTRVEIK	EC50	> 10 µg/mL
